# PROTOCOL TEXT: drug combination growth inhibition, ovarian cancer – cell-based, oncology-focused library, rucaparib conditional, profiling panel (AID 1508598)
# CONDITION INFO: patient-derived ovarian cancer cells, CellTiter-Glo viability, 144 h; at 1.25 µM; OCI-P5x cells; with rucaparib 20 µM; stronger effect = lower value; 100% = cells with rucaparib alone
Please use Met for viability under 90% and Not met for everything else, ties included.

These solved cases illustrate the format of a correct answer.
CCOC(=O)c1[nH]c2cc(Cl)ccc2c1C(C(=O)NC(C)(C)C)N(C=O)Cc1ccc(Cl)cc1 (stereo unspecified) | Not met
CC1(C)C=C(CN2C/C(=C/c3ccc(F)cc3)C(=O)/C(=C/c3ccc(F)cc3)C2)C(C)(C)N1O | Not met
CC(=O)[C@]1(O)Cc2c(O)c3c(c(O)c2[C@H](O[C@H]2C[C@H](N)[C@H](O)[C@H](C)O2)C1)C(=O)c1ccccc1C3=O | Met
CCC1=CC2CN(C1)Cc1c([nH]c3ccccc13)[C@@](C(=O)OC)(c1cc3c(cc1OC)N(C)[C@H]1[C@@](O)(C(=O)OC)[C@H](OC(C)=O)[C@]4(CC)C=CCN5CC[C@@]31[C@H]54)C2 (stereo partly specified) | Met

Exercise: Is it true that viability reported for `CO[C@H]1C[C@@H]2CC[C@@H](C)[C@@](O)(O2)C(=O)C(=O)N2CCCC[C@H]2C(=O)O[C@H]([C@H](C)C[C@@H]2CC[C@@H](O)[C@H](OC)C2)CC(=O)[C@H](C)/C=C(\C)[C@@H](O)[C@H](OC)C(=O)[C@H](C)C[C@H](C)/C=C/C=C/C=C/1C` is less than 90%?
Solution: Not met

Exercise: Is it true that viability reported for `C[C@H]1C[C@H]2[C@@H]3CCC4=CC(=O)C=C[C@]4(C)[C@@H]3C(=O)C[C@]2(C)[C@]1(O)C(=O)CO` is less than 90%?
Solution: Not met

Exercise: Is it true that viability reported for `CC[C@]1(O)C[C@@H]2CN(CCc3c([nH]c4ccccc34)[C@@](C(=O)OC)(c3cc4c(cc3OC)N(C=O)[C@H]3[C@@](O)(C(=O)OC)[C@H](OC(C)=O)[C@]5(CC)C=CCN6CC[C@@]43[C@@H]65)C2)C1` is less than 90%?
Solution: Met

Exercise: Is it true that viability reported for CCCCCOC(=O)Nc1nc(=O)n([C@@H]2O[C@H](C)[C@@H](O)C2O)cc1F (stereo partly specified) is less than 90%?
Solution: Not met

Exercise: Is it true that viability reported for `C=CCNC1=C2C[C@@H](C)C[C@H](OC)[C@H](O)[C@@H](C)/C=C(\C)[C@H](OC(N)=O)[C@@H](OC)/C=C\C=C(\C)C(=O)NC(=CC1=O)C2=O` is less than 90%?
Solution: Met

----------
# PROTOCOL TEXT: MELAS cybrid and Rieske KO viability enhancers – cell-based, MELAS cybrids, Rieske KO mouse fibroblasts, CellTiter-Glo, primary screen (AID 1508586)
# CONDITION INFO: Rieske KO mouse fibroblast survival, low glucose, CellTiter-Glo 72 h
Think of 0.07 as a floor: if z-score stands on it or above, it is Satisfied; beneath it, Not satisfied.

These solved cases illustrate the format of a correct answer.
CC(=O)O[C@]1(C(C)=O)CC[C@H]2[C@@H]3C=C(Cl)C4=CC(=O)C5CC5[C@]4(C)[C@H]3CC[C@@]21C (stereo partly drawn) | Satisfied
Cc1ccccc1CN[C@H]1C[C@H]2C(=O)N[C@@H]([C@@H](C)O)C(=O)N2C1 | Not satisfied
CC(C)CCNC(=O)C(CC(C)C)NC(=O)C1OC1C(=O)O (stereo not drawn) | Satisfied
NC(=O)c1cc(-c2ccc(F)cc2)cc(-c2ccncc2)c1N | Satisfied
COC1CC2CCC(C)[C@@](O)(O2)C(=O)C(=O)N2CCCCC2C(=O)OC(C(C)CC2CCC(OCCO)C(OC)C2)CC(=O)C(C)C=C(C)C(O)C(OC)C(=O)C(C)CC(C)C=CC=CC=C1C (stereo partly drawn) | Satisfied

Exercise: hey, is z-score for this one >= 0.07? Cc1cc(N2CCOCC2)cc2[nH]c(-c3c(NCC(O)c4cccc(Cl)c4)cc[nH]c3=O)nc12 (stereo not drawn)
Solution: Not satisfied

Exercise: hey, is z-score for this one >= 0.07? `CC(C)(CCl)C(=O)Nc1ccc(C(F)(F)F)cc1`
Solution: Satisfied

Exercise: hey, is z-score for this one >= 0.07? `C[C@H](O)[C@H]1NC(=O)[C@@H]2C[C@H](NC(=O)Nc3cccc(F)c3)CN2C1=O`
Solution: Satisfied

Exercise: hey, is z-score for this one >= 0.07? CN(C)c1cc(NC(=O)CNC(C)(C)C)c(O)c2c1C[C@H]1C[C@H]3C(N(C)C)C(=O)C(C(N)=O)=C(O)[C@@]3(O)C(=O)C1=C2O (stereo partly drawn)
Solution: Satisfied
